Provenance of the data: paper PMC8920929

Biological target: TRPV3-D512A (Homo sapiens, UniProt Q8NET8, D512A)
Sequence (Q8NET8 1-790 D512A): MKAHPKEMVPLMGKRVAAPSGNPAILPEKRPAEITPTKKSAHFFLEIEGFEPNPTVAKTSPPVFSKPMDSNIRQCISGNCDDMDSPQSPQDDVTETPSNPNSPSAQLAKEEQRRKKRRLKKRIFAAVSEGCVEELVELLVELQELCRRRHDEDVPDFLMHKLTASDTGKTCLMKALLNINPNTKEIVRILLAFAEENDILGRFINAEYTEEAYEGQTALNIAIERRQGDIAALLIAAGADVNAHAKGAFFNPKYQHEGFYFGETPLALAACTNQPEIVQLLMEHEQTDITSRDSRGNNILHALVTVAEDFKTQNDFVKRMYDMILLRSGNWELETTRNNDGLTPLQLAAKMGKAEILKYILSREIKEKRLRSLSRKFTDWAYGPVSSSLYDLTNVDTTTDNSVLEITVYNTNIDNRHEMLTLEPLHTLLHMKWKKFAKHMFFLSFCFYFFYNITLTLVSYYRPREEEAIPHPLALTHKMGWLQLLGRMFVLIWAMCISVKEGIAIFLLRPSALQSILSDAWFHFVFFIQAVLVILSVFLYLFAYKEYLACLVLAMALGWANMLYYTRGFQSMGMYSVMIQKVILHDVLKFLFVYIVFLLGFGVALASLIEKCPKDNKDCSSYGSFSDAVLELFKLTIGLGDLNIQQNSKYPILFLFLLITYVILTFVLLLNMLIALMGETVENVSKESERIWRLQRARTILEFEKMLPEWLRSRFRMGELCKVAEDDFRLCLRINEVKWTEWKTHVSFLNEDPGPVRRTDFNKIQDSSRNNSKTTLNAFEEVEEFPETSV
Experiment: Whole-cell and single-channel recordings of the TRPV3-D512A mutant
RECORDED_ENDPOINT: EC50 (mM)

[
  {
    "SUBSTANCE_SMILES": "Cc1ccc(C(C)C)cc1O",
    "RECORDED_ENDPOINT": "EC50",
    "REPORTED_MEASUREMENT": 3.21
  }
]
